tested on: myosin ATPase, Porcine Atria myofibrils; assay: Myofibril ATPase assay, porcine atria myofibrils; assay type: biochemical; conditions: concentration required to reduce myosin ATP-ase activity by 25%; Porcine Atria Prep pCa 25 GEOM_MEAN
readout kind: Porcine Atria EC25 (Y75 value)
In your response, the unit should come after the numeric value.

* CC(NC(=O)Cn1c(=O)[nH]c2ccccc2c1=O)c1cncnc1 (centres unmarked) | 100 µM

Ask: Could you share which Porcine Atria EC25 (Y75 value) value was measured for CC(NC(=O)Cn1c(=O)[nH]c2ccccc2c1=O)c1ccccc1Cl (centres unmarked) ?
Reply: 7.86 µM

====

The reader will find reported Porcine Atria EC25 (Y75 value) values listed item by item below.
system: myosin ATPase, Porcine Atria myofibrils; assay: Myofibril ATPase assay, porcine atria myofibrils; assay type: biochemical; conditions: concentration required to reduce myosin ATP-ase activity by 25%; Porcine Atria Prep pCa 25 GEOM_MEAN
In your response, the unit should come after the numeric value.

• C[C@H](NC(=O)[C@@H](Cc1ccccc1)n1c(=O)[nH]c2cccc(O)c2c1=O)c1ccc(F)cc1F [Compound 34] = 48.85 µM

Ask: Could you share which Porcine Atria EC25 (Y75 value) value was measured for CC[C@H](NC(=O)Cn1c(=O)[nH]c2ccccc2c1=O)c1ccc(F)cc1F (single isomer, unassigned) [Compound 49] ?
Reply: 100 µM

Ask: Try this compound next: Cc1cccc2[nH]c(=O)n(CC(=O)N[C@@H](C)c3ccc(F)cc3F)c(=O)c12 [Compound 73]
Reply: 0.1149 µM

Ask: Try this compound next: COc1ccc2c(=O)n(CC(=O)N[C@@H](C)c3ccc(F)cc3F)c(=O)[nH]c2c1 [Compound 142]
Reply: 100 µM

Ask: Try this compound next: CC(NC(=O)Cn1c(=O)[nH]c2ccccc2c1=O)c1ccncc1 (stereo not drawn) [Compound 213]
Reply: 100 µM

Ask: Try this compound next: CC(NC(=O)Cn1c(=O)[nH]c2ccccc2c1=O)c1ccc(F)cc1F (stereo not drawn) [Compound 169]
Reply: 2.407 µM

====

The reader will find reported Porcine Atria EC25 (Y75 value) values listed item by item below.
test system: myosin ATPase, Porcine Atria myofibrils; test: Myofibril ATPase assay, porcine atria myofibrils; format: biochemical; conditions: concentration required to reduce myosin ATP-ase activity by 25%; Porcine Atria Prep pCa 25 GEOM_MEAN
Express the result in µM but write the number alone.

Examples with their reported Porcine Atria EC25 (Y75 value) follow.
• CC(C)C[C@@H](C(=O)N[C@@H](C)c1ccc(F)cc1F)n1c(=O)[nH]c2ccccc2c1=O (single isomer, unassigned) = 56.82
• CC(C)C[C@H](C(=O)N[C@@H](C)c1ncc(F)cc1F)n1c(=O)[nH]c2ccccc2c1=O (single isomer, unassigned) = 59.55

Now for another entry.
Ask: Checklist item: Porcine Atria EC25 (Y75 value) tested on myosin ATPase, Porcine Atria myofibrils, entry C[C@H](NC(=O)Cn1c(=O)[nH]c2cccnc2c1=O)c1ccc(F)cc1F , value?
Reply: 100
